target: T1, HER2 immobilised on a Biacore chip (UniProt P04626 23-652, limits assumed); test: Biacore SPR, HER2 amine-coupled to the chip
T1 construct: also called immobilised HER2 target antigen (Biacore SPR); HER2 chip
reportedMetric: pKd
Lab note — pKd values are minus log10 of concentrations in M.

binder="scFv (TCT)-MMAF-C5 ADC 2 (DAR 6.8) (scFv, MMAF-C5 on lysine residues; DAR 8.0 by AAA, 5.5 by MS, average 6.8, also called scFv (TCT)-MMAF-C5 DAR 6.8; scFv (TCT)-MMAF DAR 8) scFv: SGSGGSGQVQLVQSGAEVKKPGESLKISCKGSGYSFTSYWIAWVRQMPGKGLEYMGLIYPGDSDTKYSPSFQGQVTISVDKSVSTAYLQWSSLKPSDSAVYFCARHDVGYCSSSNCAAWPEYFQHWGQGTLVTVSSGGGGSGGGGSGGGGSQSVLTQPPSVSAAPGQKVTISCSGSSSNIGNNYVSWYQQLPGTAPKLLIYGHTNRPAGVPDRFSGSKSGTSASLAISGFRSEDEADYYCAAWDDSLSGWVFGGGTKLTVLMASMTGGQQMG" reportedmetric=pKd valueobserved=8.44

Lab note: next binder to report on.
Q: Quick check: pKd of scFv (TCT)-MMAF-C5 ADC 1 (DAR 5.6) (scFv, MMAF-C5 (from MMAF-C5-NHS, compound 78) on lysine residues; DAR 6.64 by AAA, 4.5 by MS, average 5.6, also called scFv (TCT)-MMAF-C5 1 DAR 5.6; scFv (TCT)-MMAF-C5, DAR 6.6) scFv: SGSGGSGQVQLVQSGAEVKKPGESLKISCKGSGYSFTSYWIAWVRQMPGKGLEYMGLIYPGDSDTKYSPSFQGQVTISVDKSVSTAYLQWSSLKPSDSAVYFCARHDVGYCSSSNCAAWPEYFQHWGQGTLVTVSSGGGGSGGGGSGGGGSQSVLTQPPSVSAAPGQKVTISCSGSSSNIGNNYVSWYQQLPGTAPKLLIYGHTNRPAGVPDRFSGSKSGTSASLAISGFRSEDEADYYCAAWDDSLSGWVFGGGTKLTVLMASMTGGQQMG ?
A: 8.27
